B1: TRAF3IP2 (parent)
chain: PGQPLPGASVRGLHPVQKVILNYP

variants of: B1; test: protein stability index of a GFP-peptide fusion (GPS, HEK-293T) (PSI 1-6); higher = more stable; details: c terminus: a fixed tail appended;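 also: lentivirally expressed fusions sorted by FACS into six bins by GFP to DsRed ratio, PSI derived from sequencing read proportions per bin multiplied by bin number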
Assign 1 whenever protein stability index does not fall below 3; assign 0 whenever it does.

sequence.record	category.label
PGQPLPGASVRGLHPVQKVIPNYP [L21P]	1
PGQPLPGASVRGLHPVQKVILNYS [P24S]	0
PGQPLPTASVRGLHPVQKVILNYP [G7T]	1
PGQPLPGASVRGLHPVQKVILNYI [P24I]	0
PGQPLPGASVRGLLPVQKVILNYP [H14L]	0

query: Can PGQPLPGAFVRGLHPVQKVILNYP [S9F] be said to have protein stability index at or above 3?
result: 0

query: Would you say PGQPLPGASVRGLHVVQKVILNYP [P15V] shows protein stability index at minimum 3?
result: 0

query: Can PGQPLPGASIRGLHPVQKVILNYP [V10I] be said to have protein stability index at or above 3?
result: 0

query: # check: protein stability index of PGQPLFGASVRGLHPVQKVILNYP [P6F] is greater than or equal to 3
result: 1

query: Could you verify whether the entry PGQPLPGATVRGLHPVQKVILNYP [S9T] shows protein stability index of no less than 3?
result: 1
